Data origin, for the record: ChEMBL document CHEMBL3734721

biological target: Vasopressin V1a receptor (Homo sapiens, UniProt P37288); assay: Agonist activity at human wild-type AVPR1A receptor expressed in CHO-K1 cells assessed as calcium level by FDSS assay
Sequence (P37288 whole entry): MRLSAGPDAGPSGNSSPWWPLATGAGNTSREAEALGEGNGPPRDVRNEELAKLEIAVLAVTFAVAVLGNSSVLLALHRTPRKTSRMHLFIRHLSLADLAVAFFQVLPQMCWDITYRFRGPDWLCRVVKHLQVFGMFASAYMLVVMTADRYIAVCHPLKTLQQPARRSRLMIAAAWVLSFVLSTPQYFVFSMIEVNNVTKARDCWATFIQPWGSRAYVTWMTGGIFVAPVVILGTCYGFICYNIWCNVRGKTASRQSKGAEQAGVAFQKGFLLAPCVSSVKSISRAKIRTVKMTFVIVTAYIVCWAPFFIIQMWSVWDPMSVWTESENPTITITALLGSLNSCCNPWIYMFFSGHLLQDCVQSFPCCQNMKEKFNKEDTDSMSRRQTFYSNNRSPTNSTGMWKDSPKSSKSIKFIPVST
pEC50: −log10 of the molar value.
quantity_kind: pEC50

CB1C=Cc2c(cccc2OCC(O)CN(C)C)N1 (configuration not stated)	< 5.30

Now consider a different compound.
Sample CB1C=Cc2cccc(OCC(O)CNC(C)C)c2N1 (configuration not stated) — what was its pEC50?
< 5.30

----------
Entries and their EC50
target: UniProt P30556; assay: Agonist activity at human wild-type AGTR1 receptor expressed in CHO-K1 cells assessed as calcium level by FDSS assay; type: functional, cell-based
Sequence (P30556 whole entry): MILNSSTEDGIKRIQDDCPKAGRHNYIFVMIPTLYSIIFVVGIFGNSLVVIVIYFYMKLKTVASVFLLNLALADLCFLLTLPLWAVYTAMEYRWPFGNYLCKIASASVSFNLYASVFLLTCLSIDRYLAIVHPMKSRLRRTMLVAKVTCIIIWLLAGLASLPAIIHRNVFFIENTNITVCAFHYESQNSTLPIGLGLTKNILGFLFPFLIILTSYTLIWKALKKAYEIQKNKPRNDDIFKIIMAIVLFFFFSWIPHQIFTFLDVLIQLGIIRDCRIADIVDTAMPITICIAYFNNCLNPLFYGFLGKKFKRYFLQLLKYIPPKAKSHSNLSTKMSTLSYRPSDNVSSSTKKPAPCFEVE

CB1C=Cc2c(cccc2OCC(O)CN(C)C)N1 (configuration not stated)	> 5.01 µM

Now consider a different compound.
Sample CB1C=Cc2cccc(OCC(O)CNC(C)C)c2N1 (configuration not stated) — what was its EC50?
> 5.01 µM

----------
Entries and their pIC50
Target: Adenosine receptor A3 (Homo sapiens)
Sequence (P0DMS8 whole entry): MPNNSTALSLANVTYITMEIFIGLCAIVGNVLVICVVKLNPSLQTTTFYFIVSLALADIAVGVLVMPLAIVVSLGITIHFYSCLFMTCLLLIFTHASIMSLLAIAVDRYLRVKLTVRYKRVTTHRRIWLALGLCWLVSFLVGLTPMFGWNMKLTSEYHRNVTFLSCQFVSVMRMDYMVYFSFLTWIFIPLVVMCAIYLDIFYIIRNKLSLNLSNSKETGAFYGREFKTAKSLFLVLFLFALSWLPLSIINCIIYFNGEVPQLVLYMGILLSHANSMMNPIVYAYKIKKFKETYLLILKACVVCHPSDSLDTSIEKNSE
Experiment: Antagonist activity at human wild-type A3 receptor expressed in CHO-K1 cells assessed as IB MECA-induced cAMP by HTRF assay
pIC50: −log10 of the molar value.

CB1C=Cc2cccc(OCC(O)CNC(C)C)c2N1 (configuration not stated)	< 5.30

Now consider a different compound.
Form entry - test system: Adenosine receptor A3 (Homo sapiens); read-out: pIC50; compound: CB1C=Cc2c(cccc2OCC(O)CN(C)C)N1 (configuration not stated)
< 5.30

----------
target: D(2) dopamine receptor (Homo sapiens); assay: Antagonist activity at human wild-type D2 receptor expressed in CHO-K1 cells assessed as dopamine-induced cAMP by HTRF assay
Sequence (P14416 whole entry): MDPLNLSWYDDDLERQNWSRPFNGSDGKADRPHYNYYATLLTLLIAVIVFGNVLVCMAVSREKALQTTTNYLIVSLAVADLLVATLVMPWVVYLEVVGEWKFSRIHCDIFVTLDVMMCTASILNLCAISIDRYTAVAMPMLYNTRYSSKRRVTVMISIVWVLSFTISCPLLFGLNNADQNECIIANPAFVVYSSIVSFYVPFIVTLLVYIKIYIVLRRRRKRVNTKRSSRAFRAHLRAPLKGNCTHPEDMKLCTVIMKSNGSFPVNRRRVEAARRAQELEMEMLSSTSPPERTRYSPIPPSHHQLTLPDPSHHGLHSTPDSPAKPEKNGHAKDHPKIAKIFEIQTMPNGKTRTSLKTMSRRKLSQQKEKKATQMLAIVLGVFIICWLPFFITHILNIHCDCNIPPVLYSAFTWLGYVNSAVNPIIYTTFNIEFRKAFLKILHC
pIC50: −log10 of the molar value.
quantity_kind: pIC50

CB1C=Cc2c(cccc2OCC(O)CN(C)C)N1 (configuration not stated)	< 5.30

Now consider a different compound.
Sample CB1C=Cc2cccc(OCC(O)CNC(C)C)c2N1 (configuration not stated) — what was its pIC50?
< 5.30

----------
molecular target: Muscarinic acetylcholine receptor M2 (Homo sapiens); test: Agonist activity at human wild-type M2 receptor expressed in CHO-K1 cells assessed as cAMP level by HTRF assay
Sequence (P08172 whole entry): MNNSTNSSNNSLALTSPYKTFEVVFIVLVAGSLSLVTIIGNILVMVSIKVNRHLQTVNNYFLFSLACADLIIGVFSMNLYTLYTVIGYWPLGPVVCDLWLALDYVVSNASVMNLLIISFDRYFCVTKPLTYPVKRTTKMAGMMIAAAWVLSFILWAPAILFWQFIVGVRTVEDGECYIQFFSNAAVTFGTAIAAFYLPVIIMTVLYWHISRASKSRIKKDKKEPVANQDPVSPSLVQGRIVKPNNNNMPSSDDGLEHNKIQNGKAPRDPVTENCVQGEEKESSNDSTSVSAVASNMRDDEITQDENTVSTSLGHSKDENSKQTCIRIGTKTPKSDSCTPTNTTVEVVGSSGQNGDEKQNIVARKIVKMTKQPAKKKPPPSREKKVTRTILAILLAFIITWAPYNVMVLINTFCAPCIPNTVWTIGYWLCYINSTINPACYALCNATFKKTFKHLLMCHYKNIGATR
pEC50: −log10 of the molar value.
quantity_kind: pEC50

Sample CB1C=Cc2cccc(OCC(O)CNC(C)C)c2N1 (configuration not stated) — what was its pEC50?
< 5.30

Sample CB1C=Cc2c(cccc2OCC(O)CN(C)C)N1 (configuration not stated) — what was its pEC50?
< 5.30

----------
experiment: Chemical stability of compound in buffer at pH 7.4 assessed as compound remaining at 10 mg/ml after 2 days; type: physicochemical; conditions: read-out: Stability
quantity_kind: remaining at 48 h, 10 mg/ml (%)

CB1C=Cc2cccc(OCC(O)CNC(C)C)c2N1 (stereo not drawn)	91
CC(C)NCC(O)COc1cccc2ccccc12 (stereo not drawn) [PROPRANOLOL]	100
CB1C=Cc2c(cccc2OCC(O)CN(C)C)N1 (stereo not drawn)	96

----------
biological target: Delta-type opioid receptor (Homo sapiens, UniProt P41143); experiment: Agonist activity at human wild-type opioid-delta 1 receptor expressed in CHO-K1 cells assessed as cAMP level by HTRF assay
Sequence (P41143 whole entry): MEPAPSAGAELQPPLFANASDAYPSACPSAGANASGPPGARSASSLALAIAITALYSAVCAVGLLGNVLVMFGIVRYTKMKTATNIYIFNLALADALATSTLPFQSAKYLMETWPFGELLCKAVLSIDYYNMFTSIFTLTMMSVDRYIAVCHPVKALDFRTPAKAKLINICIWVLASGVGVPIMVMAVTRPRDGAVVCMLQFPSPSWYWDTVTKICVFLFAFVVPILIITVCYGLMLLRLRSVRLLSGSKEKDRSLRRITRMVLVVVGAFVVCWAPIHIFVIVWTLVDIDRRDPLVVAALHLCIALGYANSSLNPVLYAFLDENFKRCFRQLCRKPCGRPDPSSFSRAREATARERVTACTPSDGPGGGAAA
quantity_kind: EC50

Sample CB1C=Cc2c(cccc2OCC(O)CN(C)C)N1 (stereo unspecified) — what was its EC50?
> 5.01 µM

----------
Molecular target: Endothelin-1 receptor (Homo sapiens, UniProt P25101)
Sequence (P25101 whole entry): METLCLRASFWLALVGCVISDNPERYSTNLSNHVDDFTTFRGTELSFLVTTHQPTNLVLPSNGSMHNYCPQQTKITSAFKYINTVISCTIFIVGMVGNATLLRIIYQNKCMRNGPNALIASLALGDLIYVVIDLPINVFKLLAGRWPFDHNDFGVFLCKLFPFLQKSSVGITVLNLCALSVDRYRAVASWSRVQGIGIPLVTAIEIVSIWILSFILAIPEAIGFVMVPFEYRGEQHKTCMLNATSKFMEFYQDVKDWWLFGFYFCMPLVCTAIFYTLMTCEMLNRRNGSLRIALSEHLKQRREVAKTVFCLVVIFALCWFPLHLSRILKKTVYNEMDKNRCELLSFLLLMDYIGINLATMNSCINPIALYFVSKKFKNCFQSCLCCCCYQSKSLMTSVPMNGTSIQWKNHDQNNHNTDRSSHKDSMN
Experiment: Antagonist activity at human wild-type ETA receptor expressed in CHO-K1 cells assessed as endothelin-1-induced calcium by HTRF assay
quantity_kind: IC50

CB1C=Cc2cccc(OCC(O)CNC(C)C)c2N1 (configuration not stated)	> 5.01 µM

Sample CB1C=Cc2c(cccc2OCC(O)CN(C)C)N1 (configuration not stated) — what was its IC50?
> 5.01 µM

----------
test: Chemical stability of compound in 0.1N HCL assessed as compound remaining at 10 mg/ml after 1 day; assay type: physicochemical; conditions: read-out: Stability
quantity_kind: remaining at 24 h, 10 mg/ml (%)

CB1C=Cc2cccc(OCC(O)CNC(C)C)c2N1 (stereo not drawn)	0

1. CC(C)NCC(O)COc1cccc2ccccc12 (stereo not drawn)
2. CB1C=Cc2c(cccc2OCC(O)CN(C)C)N1 (stereo not drawn)
Which gives the smaller remaining at 24 h, 10 mg/ml number: 1 or 2 ? Please identify the chosen entry by its label.
2
(2: 0%, 1: 100%)

----------
biological target: UniProt P21728; assay: Antagonist activity at human wild-type D1 receptor expressed in CHO cells assessed as dopamine-induced cAMP by HTRF assay
Sequence (P21728 whole entry): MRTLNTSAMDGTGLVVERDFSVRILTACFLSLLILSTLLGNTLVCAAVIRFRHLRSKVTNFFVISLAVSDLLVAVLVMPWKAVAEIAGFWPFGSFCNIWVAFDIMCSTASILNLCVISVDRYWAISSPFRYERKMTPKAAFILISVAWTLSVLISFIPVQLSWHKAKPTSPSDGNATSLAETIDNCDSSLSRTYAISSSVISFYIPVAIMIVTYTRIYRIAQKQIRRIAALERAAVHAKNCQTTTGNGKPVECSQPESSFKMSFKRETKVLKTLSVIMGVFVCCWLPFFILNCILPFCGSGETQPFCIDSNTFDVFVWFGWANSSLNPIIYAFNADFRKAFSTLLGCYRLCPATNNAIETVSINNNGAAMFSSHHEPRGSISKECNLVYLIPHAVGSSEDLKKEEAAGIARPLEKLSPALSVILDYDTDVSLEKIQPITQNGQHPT
quantity_kind: IC50

CB1C=Cc2cccc(OCC(O)CNC(C)C)c2N1 (configuration not stated)	> 5.01 µM

Now consider a different compound.
Sample CB1C=Cc2c(cccc2OCC(O)CN(C)C)N1 (configuration not stated) — what was its IC50?
> 5.01 µM

----------
tested on: human MDR1; test: Permeability across apical to basolateral in MDCK expressing human MDR1 at 5 uM by LC-MS/MS method; format: ADME, cell-based, Canis lupus familiaris; conditions: dog, read-out: permeability
quantity_kind: Papp A→B at 5 µM (×10⁻⁶ cm/s)

P. CB1C=Cc2c(cccc2OCC(O)CN(C)C)N1 (stereo not drawn)
Q. CB1C=Cc2cccc(OCC(O)CNC(C)C)c2N1 (stereo not drawn)
R. CC(C)NCC(O)COc1cccc2ccccc12 (stereo not drawn)
Ordering criterion: Papp A→B at 5 µM; begin with the maximum. Your task in answering is to list the labels in the requested order.
R, P, Q
(R: 3.5 ×10⁻⁶ cm/s, P: 2.3 ×10⁻⁶ cm/s, Q: 1.3 ×10⁻⁶ cm/s)

----------
assay: Kinetic solubility of compound in phosphate buffer at pH 7.4 for 4 hrs by UPLC/UV analysis; assay type: physicochemical; conditions: read-out: Kinetic_solubility
quantity_kind: solubility kinetic at 4 h (µM)

CB1C=Cc2cccc(OCC(O)CNC(C)C)c2N1 (stereo not drawn)	699
CC(C)NCC(O)COc1cccc2ccccc12 (stereo not drawn)	764
CB1C=Cc2c(cccc2OCC(O)CN(C)C)N1 (stereo not drawn)	647

----------
molecular target: 5-hydroxytryptamine receptor 2C (Homo sapiens, UniProt P28335); experiment: Agonist activity at human 5-HT2C receptor expressed in CHO-K1 cells assessed as calcium level by FDSS assay
Sequence (P28335 whole entry): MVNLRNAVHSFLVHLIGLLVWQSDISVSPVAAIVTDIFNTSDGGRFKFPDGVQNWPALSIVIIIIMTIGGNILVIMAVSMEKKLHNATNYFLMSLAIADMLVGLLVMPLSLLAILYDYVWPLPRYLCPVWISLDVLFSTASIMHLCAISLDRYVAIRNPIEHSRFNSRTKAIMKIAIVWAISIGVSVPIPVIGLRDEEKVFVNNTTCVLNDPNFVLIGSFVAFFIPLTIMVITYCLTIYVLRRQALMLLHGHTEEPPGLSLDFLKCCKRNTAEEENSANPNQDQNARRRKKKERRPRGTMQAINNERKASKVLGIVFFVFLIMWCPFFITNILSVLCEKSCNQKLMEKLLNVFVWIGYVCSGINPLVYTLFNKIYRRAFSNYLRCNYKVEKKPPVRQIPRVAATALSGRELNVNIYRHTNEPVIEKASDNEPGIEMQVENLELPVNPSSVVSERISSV
quantity_kind: EC50

CB1C=Cc2cccc(OCC(O)CNC(C)C)c2N1 (configuration not stated)	> 5.01 µM

Now consider a different compound.
Sample CB1C=Cc2c(cccc2OCC(O)CN(C)C)N1 (configuration not stated) — what was its EC50?
> 5.01 µM

----------
target: 5-hydroxytryptamine receptor 6 (Homo sapiens); experiment: Antagonist activity at human 5-HT6 receptor expressed in 1321N1 cells assessed as seretonin-induced cAMP by HTRF assay
Sequence (P50406 whole entry): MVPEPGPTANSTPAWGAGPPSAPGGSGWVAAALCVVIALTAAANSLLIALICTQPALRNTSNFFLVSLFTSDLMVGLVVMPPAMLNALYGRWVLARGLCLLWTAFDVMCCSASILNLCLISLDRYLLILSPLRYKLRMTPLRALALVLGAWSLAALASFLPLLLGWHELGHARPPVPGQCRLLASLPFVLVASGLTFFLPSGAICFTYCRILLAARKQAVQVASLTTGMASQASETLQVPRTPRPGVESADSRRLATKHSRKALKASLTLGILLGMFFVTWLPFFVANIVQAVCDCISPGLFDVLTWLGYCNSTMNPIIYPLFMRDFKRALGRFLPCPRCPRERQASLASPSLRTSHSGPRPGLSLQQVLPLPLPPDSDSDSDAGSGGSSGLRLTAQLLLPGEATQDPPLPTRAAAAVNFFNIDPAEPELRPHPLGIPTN
quantity_kind: IC50

CB1C=Cc2c(cccc2OCC(O)CN(C)C)N1 (stereo not drawn)	> 5.01 µM
CC(C)NCC(O)COc1cccc2ccccc12 (stereo not drawn)	> 5.01 µM

Now consider a different compound.
Form entry - test system: 5-hydroxytryptamine receptor 6 (Homo sapiens); read-out: IC50; compound: CB1C=Cc2cccc(OCC(O)CNC(C)C)c2N1 (stereo not drawn)
> 5.01 µM

----------
assay: Intrinsic clearance in mouse liver microsomes at 1 uM by HPLC/MS/MS analysis; assay type: ADME; details: read-out: CLH
quantity_kind: microsomal CLint at 1 µM (µL/min/mg)
Please respond with the number in µL/min/mg and leave the unit unwritten.

Sample CB1C=Cc2c(cccc2OCC(O)CN(C)C)N1 (configuration not stated) — what was its microsomal CLint at 1 µM?
175
